This collection of values is drawn from patent US10065948B2.

- Tested on: cellular histone deacetylase enzymatic activity in Jurkat E6-1 cells
- assay-method-text: Inhibition of cellular HDAC activity, Boc-Lys(Tfa)-AMC substrate (Cell Lys-TFA)
- Format: cell-based
- condition-summary: Homo sapiens, Jurkat E6.1, Lys-TFA substrate
parameter-measured: IC50 (nM)

Prompt: Give IC50; test system cellular histone deacetylase enzymatic activity in Jurkat E6-1 cells; compound Cc1c(F)cccc1C1(C(=O)NO)CCc2nc(-c3cncnc3)sc2C1 (stereo not drawn)
Completion: 660

[A] Cc1cc(F)ccc1-n1ncc2c1C[C@](C(=O)NO)(c1cccc(F)c1C)C2
[B] Cc1c(F)cccc1[C@@]1(C(=O)NO)CCc2nc(C3CC3)ncc21 [Example 51]
Prompt: Which of the two items, A and B , has the greater recorded IC50? Let me know the label of the one you choose.
Completion: B
(B: 1400 nM, A: 11 nM)

---

- Tested on: cellular histone deacetylase enzymatic activity in Jurkat E6-1 cells
- assay-method-text: Inhibition of cellular HDAC activity, Boc-Lys(Tfa)-AMC substrate (Cell Lys-TFA)
- Type: cell-based
- condition-summary: Homo sapiens, Jurkat E6.1, Lys-TFA substrate
parameter-measured: IC50 (nM)

Prompt: State its IC50 for this compound: Cc1c(F)cccc1[C@]1(C(=O)NO)CCc2nc(-c3ccc(F)cc3)sc21 [Example 78]
Completion: 500

Prompt: State its IC50 for this compound: Cc1cc(C)nc(-n2cc3c(n2)C[C@](C(=O)NO)(c2cccc(F)c2C)C3)n1 [Example 91]
Completion: 460
